targetDesc: UniProtKB Q00534
Sequence (Q00534 whole entry): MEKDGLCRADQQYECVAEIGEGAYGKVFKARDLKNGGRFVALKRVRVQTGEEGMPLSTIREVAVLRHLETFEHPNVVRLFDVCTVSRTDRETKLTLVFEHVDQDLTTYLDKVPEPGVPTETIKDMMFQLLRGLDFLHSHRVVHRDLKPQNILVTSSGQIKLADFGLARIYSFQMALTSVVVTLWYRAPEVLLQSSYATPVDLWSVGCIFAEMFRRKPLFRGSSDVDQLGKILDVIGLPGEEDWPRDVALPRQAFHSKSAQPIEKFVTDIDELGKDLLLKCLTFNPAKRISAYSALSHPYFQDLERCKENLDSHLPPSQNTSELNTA
Sequence (P24385 whole entry partner): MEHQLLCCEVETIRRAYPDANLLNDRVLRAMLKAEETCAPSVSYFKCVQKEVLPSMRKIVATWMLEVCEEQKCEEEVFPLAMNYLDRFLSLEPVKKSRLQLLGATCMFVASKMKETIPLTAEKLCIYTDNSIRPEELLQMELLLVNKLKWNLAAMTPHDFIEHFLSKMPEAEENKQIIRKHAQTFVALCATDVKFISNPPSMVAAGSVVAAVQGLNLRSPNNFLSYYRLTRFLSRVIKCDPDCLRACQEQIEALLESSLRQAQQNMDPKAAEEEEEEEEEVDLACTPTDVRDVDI
quantityMeasured: pIC50
Give bare numbers, as −log10 of the molar value.

query: Would you mind telling me what pIC50 value was observed for CC1(C)CCN1C(=O)O[C@@H]1CC[C@H](c2cc(NC(=O)Cc3ccc(N4CCCC4=O)cc3)n[nH]2)C1 ?
result: 5.88
